- ASSAY SUMMARY: Plasma clearance in Balb/C mouse at 2.5 mg/kg, iv up to 24 hrs by LC-MS analysis
- Type: ADME, organism-based
MEASUREMENT NAME: clearance (mL/min/kg)
Field: numeric (mL/min/kg). Do not append units.

Query: clearance; subject: N=C(N)NC(=O)c1nc(Cl)c(N2CCCCCC2)nc1N [N,N-HEXAMETHYLENEAMILORIDE] 86

* * *

List of Papp B→A at 2 h, 20 µM values.
- ASSAY SUMMARY: in vitro
- CONDITION DESCRIPTION: human, Caco-2
- Description: Apparent permeability across basolateral to apical side in human Caco2 cells at 20 uM after 2 hrs by LC-MS analysis
// note: answer is a bare numeric in ×10⁻⁶ cm/s

Worked cases, answers included:
[[record]]
molecule = "COc1ncc(-c2nc(C(=O)NC(=N)N)c(N)nc2N)cn1"
measurement_name = "Papp B→A at 2 h, 20 µM"
display_unit = "×10⁻⁶ cm/s"
value_measured = 0.26

[[record]]
molecule = "COC(=O)c1ccccc1-c1c2ccc(=N)cc-2oc2cc(N)ccc12"
measurement_name = "Papp B→A at 2 h, 20 µM"
display_unit = "×10⁻⁶ cm/s"
value_measured = 12


What does the record list as Papp B→A at 2 h, 20 µM for N=C(N)NC(=O)c1nc(Cl)c(N2CCCCCC2)nc1N [N,N-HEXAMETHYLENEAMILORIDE] ? 56

Bench note: what Papp B→A at 2 h, 20 µM did CC(C)NCC(O)COc1cccc2ccccc12 (stereo not given) show? 51

Return reported Papp B→A at 2 h, 20 µM; argument: `N=C(N)NC(=O)c1nc(-c2cc3ccccc3o2)c(N2CCCCCC2)nc1N` 12

* * *

- ASSAY SUMMARY: Volume of distribution at steady state in Balb/C mouse blood at 3.5 mg/kg, iv up to 24 hrs by LC-MS analysis
- Format: ADME, organism-based
- CONDITION DESCRIPTION: whole blood, read-out: Vdss
MEASUREMENT NAME: Vd (L/kg)
# value in L/kg; strip the unit string

Fill in: Vd of `N=C(N)NC(=O)c1nc(-c2cc3ccccc3o2)c(N)nc1N` is ___ 2.2

* * *

- ASSAY SUMMARY: Volume of distribution at steady state in Sprague-Dawley rat plasma at 3.9 mg/kg, iv up to 24 hrs by LC-MS analysis
- Format: ADME, organism-based
- CONDITION DESCRIPTION: read-out: Vdss
MEASUREMENT NAME: Vd
# include the unit after the value

For the compound `N=C(N)NC(=O)c1nc(-c2cc3ccccc3o2)c(N2CCCCCC2)nc1N` , what Vd is on record? 12.4 L/kg

* * *

- ASSAY SUMMARY: Plasma clearance in Balb/C mouse at 2.6 mg/kg, iv up to 24 hrs by LC-MS analysis
- Type: ADME, organism-based
MEASUREMENT NAME: clearance
Please answer in the form of a number followed by its unit of measurement.

Bench note: what clearance did `N=C(N)NC(=O)c1nc(-c2cc3ccccc3o2)c(N2CCCCCC2)nc1N` show? 71 mL/min/kg

* * *

- ASSAY SUMMARY: AUC(0 to infinity) in Sprague-Dawley rat plasma at 2.9 mg/kg, iv up to 24 hrs by LC-MS analysis
- Format: ADME, organism-based
- Parameters: route intravenous, dose 2.9 mg/kg, time <=24
MEASUREMENT NAME: AUC(0-inf)

Name the recorded AUC(0-inf) for `COc1ncc(-c2nc(C(=O)NC(=N)N)c(N)nc2N)cn1` . 3.2 µM·h

* * *

- ASSAY SUMMARY: AUC(0 to infinity) in Balb/C mouse plasma at 1.9 mg/kg, iv up to 24 hrs by LC-MS analysis
- Assay type: ADME, organism-based
- Set-up: route intravenous, dose 1.9 mg/kg, time <=24
MEASUREMENT NAME: AUC(0-inf) (nM·h)
The answer is to be given in nM·h; state only the numeric part.

Entry under review: `COc1ncc(-c2nc(C(=O)NC(=N)N)c(N)nc2N)cn1` . Reported AUC(0-inf)? 2700

* * *

// reported microsomal CLint at 1 h, 1 µM per item
- ASSAY SUMMARY: in vitro
- CONDITION DESCRIPTION: mouse, liver microsomes
Numeric answer only, unit µL/min/mg assumed.

// known answers, use as guide
[[record]]
molecule = "N=C(N)NC(=O)c1nc(-c2ccc(C(F)(F)F)cc2)c(N2CCCCCC2)nc1N"
measurement_name = "microsomal CLint at 1 h, 1 µM"
value_measured = 66

[[record]]
molecule = "N=C(N)NC(=O)c1nc(Cl)c(N2CCCCCC2)nc1N [N,N-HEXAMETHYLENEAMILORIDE]"
measurement_name = "microsomal CLint at 1 h, 1 µM"
value_measured = 726

[[record]]
molecule = "N=C(N)NC(=O)c1nc(-c2ccco2)c(N2CCCCCC2)nc1N"
measurement_name = "microsomal CLint at 1 h, 1 µM"
value_measured = 138


Requested field: microsomal CLint at 1 h, 1 µM. Item: `N=C(N)NC(=O)c1nc(-c2cc3ccccc3o2)c(N)nc1N` 106

* * *

- ASSAY SUMMARY: Volume of distribution at steady state in Sprague-Dawley rat blood at 2.9 mg/kg, iv up to 24 hrs by LC-MS analysis
- Assay type: ADME, organism-based
- CONDITION DESCRIPTION: whole blood, read-out: Vdss
MEASUREMENT NAME: Vd

Please give the measured Vd for this compound: `COc1ncc(-c2nc(C(=O)NC(=N)N)c(N)nc2N)cn1` 5.2 L/kg

* * *

- ASSAY SUMMARY: Volume of distribution at steady state in Balb/C mouse blood at 2.6 mg/kg, iv up to 24 hrs by LC-MS analysis
- Type: ADME, organism-based
- CONDITION DESCRIPTION: whole blood, read-out: Vdss
MEASUREMENT NAME: Vd (L/kg)
# output: bare number, implied unit L/kg

So what's the measured Vd for this one? `N=C(N)NC(=O)c1nc(-c2cc3ccccc3o2)c(N2CCCCCC2)nc1N` 1.7

* * *

- ASSAY SUMMARY: Clearance in Sprague-Dawley rat blood at 2.6 mg/kg, iv up to 24 hrs by LC-MS analysis
- Assay type: ADME, organism-based
- CONDITION DESCRIPTION: whole blood
MEASUREMENT NAME: clearance (mL/min/kg)
Give a bare numeral; the unit mL/min/kg is implied.

# input molecule: `N=C(N)NC(=O)c1nc(-c2cc3ccccc3o2)c(N)nc1N` ; wanted: its clearance 44.7

* * *

- ASSAY SUMMARY: AUC(0 to infinity) in Sprague-Dawley rat plasma at 3.9 mg/kg, iv up to 24 hrs by LC-MS analysis
- Format: ADME, organism-based
- Design: route intravenous, dose 3.9 mg/kg, time <=24
MEASUREMENT NAME: AUC(0-inf) (µM·h)
Numeric only. Scale: µM·h

// lookup AUC(0-inf) for `N=C(N)NC(=O)c1nc(-c2cc3ccccc3o2)c(N2CCCCCC2)nc1N` 2.9

* * *

- CONDITION DESCRIPTION: human, microsomes, 1 h, 1 µM
Below, each of the molecules is paired with its reported CL free value.
Your answer is read as µL/min/mg, so omit the unit and give the number.

The examples below pair each entry with its known result.
[[record]]
molecule = "N=C(N)NC(=O)c1nc(Cl)c(N2CCCCCC2)nc1N [N,N-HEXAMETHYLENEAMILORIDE]"
measurement_name = "CL free"
value_measured = 74

[[record]]
molecule = "N=C(N)NC(=O)c1nc(-c2ccc(C(F)(F)F)cc2)c(N)nc1N"
measurement_name = "CL free"
value_measured = 11

[[record]]
molecule = "N=C(N)NC(=O)c1nc(-c2cc3ccccc3o2)c(N2CCCCCC2)nc1N"
measurement_name = "CL free"
value_measured = 888

[[record]]
molecule = "N=C(N)NC(=O)c1nc(-c2ccc(C(F)(F)F)cc2)c(N2CCCCCC2)nc1N"
measurement_name = "CL free"
value_measured = 355

[[record]]
molecule = "N=C(N)NC(=O)c1nc(-c2cc3ccccc3s2)c(N2CCCCCC2)nc1N"
measurement_name = "CL free"
value_measured = 433

[[record]]
molecule = "N=C(N)NC(=O)c1nc(-c2cc3ccccc3s2)c(N)nc1N"
measurement_name = "CL free"
value_measured = 41


// returns reported CL free for input `N=C(N)NC(=O)c1nc(-c2cncnc2)c(N2CCCCCC2)nc1N` 32

* * *

- ASSAY SUMMARY: Clearance in Sprague-Dawley rat renal blood at 2.6 mg/kg, iv up to 24 hrs by LC-MS analysis
- Format: ADME, organism-based
- CONDITION DESCRIPTION: whole blood
MEASUREMENT NAME: CL renal at 24 h (mL/min/kg)
The reply should contain only the number, in mL/min/kg.

Entry `N=C(N)NC(=O)c1nc(-c2cc3ccccc3o2)c(N)nc1N` : reported CL renal at 24 h = ? 5.6

Value source: ChEMBL document CHEMBL4732263
